Data credit: ChEMBL document CHEMBL1138049

# TARGET_DESC: Thyrotropin receptor (Homo sapiens)
# METHOD_SUMMARY: Agonist activity at TSHR expressed in HEK293 EM cells measured by intracellular cAMP accumulation relative to TSH
# Format: functional, cell-based
READOUT: Efficacy (%)

I: COc1cccc(-c2nc(SC)nc3sc(C(=O)NCCO)c(N)c23)c1
II: CSc1nc(-c2cccc(O)c2)c2c(N)c(C(=O)NC(C)(C)C)sc2n1
input: Param pair: I , II . Output: the one whose Efficacy is numerically greater. Could you answer with the label of the item you picked?
output: II

A: COc1cccc(-c2nc(SC)nc3sc(C(=O)NCC#N)c(N)c23)c1
B: CCNC(=O)c1sc2nc(SC)nc(-c3cccc(OC)c3)c2c1N
input: Which value of Efficacy is smaller, the one for A or the one for B ? Could you answer with the label of the item you picked?
output: B
(B: 2.3%, A: 3.6%)

I: COc1cccc(-c2nc(SC)nc3sc(C(=O)NC(C)(C)C)c(N)c23)c1
II: COc1cccc(-c2nc(SC)nc3sc(C(=O)NNC(=O)OC(C)(C)C)c(N)c23)c1
input: Param pair: I , II . Output: the one whose Efficacy is numerically greater. Could you answer with the label of the item you picked?
output: I
(I: 23.4%, II: 1.9%)

###

# TARGET_DESC: Lutropin-choriogonadotropic hormone receptor (Homo sapiens)
# METHOD_SUMMARY: Agonist activity at LHCGR expressed in HEK293 EM cells measured by intracellular cAMP accumulation relative to LH
# Type: functional, cell-based
READOUT: Efficacy (%)

Would you please look over these solved cases?
COc1cccc(-c2nc(SC)nc3sc(C(=O)N(C)C(C)(C)C)c(N)c23)c1; 47.8
COc1cccc(-c2nc(SC)nc3sc(C(=O)NNC(C)(C)C)c(N)c23)c1; 6
COc1cccc(-c2nc(SC)nc3sc(C(=O)NN)c(N)c23)c1; 8.5

1: COc1cccc(-c2nc(SC)nc3sc(C(=O)NC(C)(C)C)c(N)c23)c1
2: COc1cccc(-c2nc(SC)nc3sc(C(=O)N(C)C)c(N)c23)c1
3: COc1cccc(-c2nc(SC)nc3sc(C(=O)NNC(=O)OC(C)(C)C)c(N)c23)c1
4: COc1cccc(-c2nc(SC)nc3sc(C(=O)NCCO)c(N)c23)c1
input: // ranking: key=Efficacy, reverse=True Write out the labels following the order that was asked for.
output: 1, 4, 2, 3

1: COc1cccc(-c2nc(SC)nc3sc(C(=O)NC(C)(C)C)c(N)c23)c1F
2: COc1cccc(-c2nc(SC)nc3sc(C(=O)OC(C)(C)C)c(N)c23)c1
3: CCOC(=O)c1sc2nc(SC)nc(-c3cccc(OC)c3)c2c1N
4: COc1cccc(-c2nc(SC)nc3sc(C(=O)NCc4ccccc4)c(N)c23)c1
input: // ranking: key=Efficacy, reverse=True Write out the labels following the order that was asked for.
output: 1, 2, 4, 3

A: COc1cccc(-c2nc(SC)nc3sc(C(=O)NC(C)(C)C)c(N)c23)c1OC
B: CCNC(=O)c1sc2nc(SC)nc(-c3cccc(OC)c3)c2c1N
input: Param pair: A , B . Output: the one whose Efficacy is numerically greater. Could you answer with the label of the item you picked?
output: A

###

# TARGET_DESC: Thyrotropin receptor (Homo sapiens)
# METHOD_SUMMARY: Agonist activity at TSHR expressed in HEK293 EM cells measured by intracellular cAMP accumulation relative to TSH
# Format: functional, cell-based
READOUT: Efficacy (%)

Would you please look over these solved cases?
COc1cccc(-c2nc(SC)nc3sc(C(=O)N(C)C(C)(C)C)c(N)c23)c1; 3.6
COc1cccc(-c2nc(SC)nc3sc(C(=O)NC(C)(C)C)c(N)c23)c1OC; 3

I: COc1cccc(-c2nc(SC)nc3sc(C(=O)N(C)C)c(N)c23)c1
II: COc1cccc(-c2nc(SC)nc3sc(C(=O)NNC(C)(C)C)c(N)c23)c1
input: Which value of Efficacy is smaller, the one for I or the one for II ? Could you answer with the label of the item you picked?
output: I
(I: 4%, II: 6.4%)
